- tested on: T1, human serum albumin (human, UniProt P02768 25-609)
- T1 construct: Immobilised by amine coupling on a C1 chip; also called HSA
- T1 sequence (P02768 25-609 limits assumed): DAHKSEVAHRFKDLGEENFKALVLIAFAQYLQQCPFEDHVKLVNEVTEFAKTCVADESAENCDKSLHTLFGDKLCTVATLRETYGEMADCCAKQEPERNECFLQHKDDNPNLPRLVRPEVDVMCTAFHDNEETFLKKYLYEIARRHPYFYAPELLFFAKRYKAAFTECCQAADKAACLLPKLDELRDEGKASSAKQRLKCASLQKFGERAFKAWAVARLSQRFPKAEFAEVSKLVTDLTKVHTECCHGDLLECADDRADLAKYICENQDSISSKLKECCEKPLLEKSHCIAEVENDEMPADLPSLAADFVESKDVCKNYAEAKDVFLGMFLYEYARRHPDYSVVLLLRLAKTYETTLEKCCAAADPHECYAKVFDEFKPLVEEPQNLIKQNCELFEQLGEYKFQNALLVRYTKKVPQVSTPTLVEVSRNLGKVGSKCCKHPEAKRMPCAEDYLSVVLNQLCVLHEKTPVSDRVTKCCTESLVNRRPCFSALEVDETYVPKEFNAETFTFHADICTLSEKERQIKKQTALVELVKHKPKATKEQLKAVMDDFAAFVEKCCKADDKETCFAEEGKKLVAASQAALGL
- protocol description: SPR Biacore 8K+, HSA amine-coupled on C1 chip, ISVD analyte, 1:1 fit
Examples of binders with documented pKd follow.
Friendly reminder that pKd comes from taking -log10 of the concentration in mol/L.

A selection of reference data follows.
1. T028501815 (VHH, K75R vs precursor T028501805; also called HSA006A06(K75R, K83R)) VHH: EVQLVESGGGVVQPGGSLRLSCAASGFTFRSFGMSWVRQAPGKGPEWVSSISGSGSDTLYADSVKGRFTISRDNSRNTLYLQMNSLRPEDTALYYCTIGGSLSRSSQGTLVTVSS
8.83
2. T028501836 (VHH) VHH: EVQLVESGGGVVQPGGSLRLSCAASGFTFRSFGMSWVRQAPGKGPEWVSSISGSGSDTLYADSVKGRFTISRDNSHNTLYLQMNSLRPEDTALYYCTIGGSLSRSSQGTLVTVSS
8.87
3. T028501807 (VHH, K43Q vs precursor T028501805; also called HSA006A06(K43Q, K83R)) VHH: EVQLVESGGGVVQPGGSLRLSCAASGFTFRSFGMSWVRQAPGQGPEWVSSISGSGSDTLYADSVKGRFTISRDNSKNTLYLQMNSLRPEDTALYYCTIGGSLSRSSQGTLVTVSS
8.75
4. T028501812 (VHH, K64H vs precursor T028501805; also called HSA006A06(K64H, K83R)) VHH: EVQLVESGGGVVQPGGSLRLSCAASGFTFRSFGMSWVRQAPGKGPEWVSSISGSGSDTLYADSVHGRFTISRDNSKNTLYLQMNSLRPEDTALYYCTIGGSLSRSSQGTLVTVSS
8.76
5. T028501805 (VHH, also called ALB00622; HSA006A06(K83R)) VHH: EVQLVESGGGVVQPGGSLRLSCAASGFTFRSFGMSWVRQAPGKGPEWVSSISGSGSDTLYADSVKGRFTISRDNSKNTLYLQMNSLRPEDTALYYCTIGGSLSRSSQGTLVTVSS
8.89
6. T028501813 (VHH, K75E vs precursor T028501805; also called HSA006A06(K75E, K83R)) VHH: EVQLVESGGGVVQPGGSLRLSCAASGFTFRSFGMSWVRQAPGKGPEWVSSISGSGSDTLYADSVKGRFTISRDNSENTLYLQMNSLRPEDTALYYCTIGGSLSRSSQGTLVTVSS
8.70

Ask: Entry T028501833 (VHH, K43R vs precursor T028501805; also called HSA006A06(K43R, K83R)) VHH: EVQLVESGGGVVQPGGSLRLSCAASGFTFRSFGMSWVRQAPGRGPEWVSSISGSGSDTLYADSVKGRFTISRDNSKNTLYLQMNSLRPEDTALYYCTIGGSLSRSSQGTLVTVSS : reported pKd = ?
Result: 8.89

Ask: Entry T028501808 (VHH, K43H vs precursor T028501805; also called HSA006A06(K43H, K83R)) VHH: EVQLVESGGGVVQPGGSLRLSCAASGFTFRSFGMSWVRQAPGHGPEWVSSISGSGSDTLYADSVKGRFTISRDNSKNTLYLQMNSLRPEDTALYYCTIGGSLSRSSQGTLVTVSS : reported pKd = ?
Result: 8.85

Ask: Entry T028501806 (VHH, K43E vs precursor T028501805; also called HSA006A06(K43E, K83R)) VHH: EVQLVESGGGVVQPGGSLRLSCAASGFTFRSFGMSWVRQAPGEGPEWVSSISGSGSDTLYADSVKGRFTISRDNSKNTLYLQMNSLRPEDTALYYCTIGGSLSRSSQGTLVTVSS : reported pKd = ?
Result: 8.90

Ask: Entry T028501814 (VHH, K75Q vs precursor T028501805; also called HSA006A06(K75Q, K83R)) VHH: EVQLVESGGGVVQPGGSLRLSCAASGFTFRSFGMSWVRQAPGKGPEWVSSISGSGSDTLYADSVKGRFTISRDNSQNTLYLQMNSLRPEDTALYYCTIGGSLSRSSQGTLVTVSS : reported pKd = ?
Result: 8.85

Ask: Entry T028501811 (VHH, K64Q vs precursor T028501805; also called HSA006A06(K64Q, K83R)) VHH: EVQLVESGGGVVQPGGSLRLSCAASGFTFRSFGMSWVRQAPGKGPEWVSSISGSGSDTLYADSVQGRFTISRDNSKNTLYLQMNSLRPEDTALYYCTIGGSLSRSSQGTLVTVSS : reported pKd = ?
Result: 8.75

Ask: Entry T028501834 (VHH, K64R vs precursor T028501805; also called HSA006A06(K64R, K83R)) VHH: EVQLVESGGGVVQPGGSLRLSCAASGFTFRSFGMSWVRQAPGKGPEWVSSISGSGSDTLYADSVRGRFTISRDNSKNTLYLQMNSLRPEDTALYYCTIGGSLSRSSQGTLVTVSS : reported pKd = ?
Result: 8.95

Ask: Entry T028501809 (VHH, K43A vs precursor T028501805; also called HSA006A06(K43A, K83R)) VHH: EVQLVESGGGVVQPGGSLRLSCAASGFTFRSFGMSWVRQAPGAGPEWVSSISGSGSDTLYADSVKGRFTISRDNSKNTLYLQMNSLRPEDTALYYCTIGGSLSRSSQGTLVTVSS : reported pKd = ?
Result: 8.95

Ask: Entry T028501810 (VHH, K64E vs precursor T028501805; also called HSA006A06(K64E,K83R)) VHH: EVQLVESGGGVVQPGGSLRLSCAASGFTFRSFGMSWVRQAPGKGPEWVSSISGSGSDTLYADSVEGRFTISRDNSKNTLYLQMNSLRPEDTALYYCTIGGSLSRSSQGTLVTVSS : reported pKd = ?
Result: 8.71

Ask: Entry T028501816 (VHH, K75A vs precursor T028501805; also called HSA006A06(K75A, K83R)) VHH: EVQLVESGGGVVQPGGSLRLSCAASGFTFRSFGMSWVRQAPGKGPEWVSSISGSGSDTLYADSVKGRFTISRDNSANTLYLQMNSLRPEDTALYYCTIGGSLSRSSQGTLVTVSS : reported pKd = ?
Result: 8.88

Ask: Entry T028501835 (VHH, K64A vs precursor T028501805; also called HSA006A06(K64A, K83R)) VHH: EVQLVESGGGVVQPGGSLRLSCAASGFTFRSFGMSWVRQAPGKGPEWVSSISGSGSDTLYADSVAGRFTISRDNSKNTLYLQMNSLRPEDTALYYCTIGGSLSRSSQGTLVTVSS : reported pKd = ?
Result: 8.69
